Biological target: MK2 (Rattus norvegicus)
Construct: endogenous in cells; host or cells: rat microvascular endothelial cells (RMVEC)
Sequence (Q80ZF4 1-386): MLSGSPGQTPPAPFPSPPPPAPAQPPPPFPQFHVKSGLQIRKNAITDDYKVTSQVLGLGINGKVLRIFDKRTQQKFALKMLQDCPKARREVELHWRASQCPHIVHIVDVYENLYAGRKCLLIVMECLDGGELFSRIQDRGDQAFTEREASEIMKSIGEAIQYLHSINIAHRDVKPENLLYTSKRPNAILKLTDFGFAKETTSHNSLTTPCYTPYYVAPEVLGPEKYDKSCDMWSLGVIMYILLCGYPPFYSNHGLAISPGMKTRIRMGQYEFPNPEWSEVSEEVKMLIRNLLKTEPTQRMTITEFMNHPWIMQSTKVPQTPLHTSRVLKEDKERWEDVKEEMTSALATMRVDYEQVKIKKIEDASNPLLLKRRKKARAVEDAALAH
Experiment: ELISA MK2 cell-based activity assay (phospho-HSP-27), RMVEC cells
Conditions: compound 20 μM, 30 minutes, 37° C.
Procedure: The MK2 activator candidates, identified using the artificial intelligence (AI)-assisted docking approach, were tested in activity assays for lead selection against the MK2 target. MK2 activation was assessed using (a) a cell-based assay using rat microvascular endothelial cells (RMVEC) and (b) human cancer skin fibroblast cells (Malme-3M). […] Higher activity compounds, acting on MK2, induced higher levels of HSP-27 phosphorylation, as measured by the ELISA.
Catalogue of Ratio Compound/control values

>  <Compound>
Nc1ccccc1NC(=O)c1ccc(CNc2nccc(-c3cccnc3)n2)cc1 [Compound 38, Mocetinostat]

>  <Assay System>
MK2 (Rattus norvegicus)

>  <Ratio Compound/control>
1.0

$$$$
>  <Compound>
Cc1cc(C(=O)Nc2cc(Nc3ccc4c(/C=C/c5ccccn5)n[nH]c4c3)ccc2F)n(C)n1 [Compound 74, Ag-13958]

>  <Assay System>
MK2 (Rattus norvegicus)

>  <Ratio Compound/control>
1.2

$$$$
>  <Compound>
COc1ccc(-c2cc(C(F)F)nn2-c2ccc(S(N)(=O)=O)cc2)cc1F [Compound 113, Deracoxib]

>  <Assay System>
MK2 (Rattus norvegicus)

>  <Ratio Compound/control>
1.2

$$$$
>  <Compound>
CC(C)c1cc(CNc2nc(Nc3cc(C4CC4)[nH]n3)cc(N3CCN(C)CC3)n2)on1 [Compound 43, Xl-228]

>  <Assay System>
MK2 (Rattus norvegicus)

>  <Ratio Compound/control>
0.4

$$$$
>  <Compound>
FC(F)(F)c1ccc(/C=C/c2nc(COc3ccc(CCCCn4ccnn4)cc3)co2)cc1 [Compound 37, Mubritinib]

>  <Assay System>
MK2 (Rattus norvegicus)

>  <Ratio Compound/control>
1.6

$$$$
>  <Compound>
CCN1CCN(Cc2ccc(NC(=O)Nc3ccc(Oc4cc(NC)ncn4)cc3)cc2C(F)(F)F)CC1 [Compound 55, Ast-487]

>  <Assay System>
MK2 (Rattus norvegicus)

>  <Ratio Compound/control>
1.3

$$$$
